Tested on: Hs-578T
Assay: NCI tumour cell line growth inhibition, 48 h
Activity calls are given as the source filed them. Rule as the data show it: active = GI50 up to about 1.1 µM and inactive = higher.
Entries and their GI50

{"compound": "CC1CC[C@]2(C(=O)O)CCC3(C)C(=C2[C@H]1C)C=CC1[C@@]2(C)CC[C@H](O)C(C)(C)C2CC[C@]13C (some centres undefined)", "tested on": "Hs-578T", "GI50": "26 µM (inactive)"}
{"compound": "COc1ccccc1/C=C1\\S/C(=N/Nc2nc(C)c(C(C)=O)s2)NC1=O", "tested on": "Hs-578T", "GI50": "25.4 µM (inactive)"}
{"compound": "S=C1Nc2ccccc2SC1c1ccccc1 (centres undefined)", "tested on": "Hs-578T", "GI50": "19.9 µM (inactive)"}
{"compound": "Clc1ccc(C2ON=C(c3ccccc3)N2C23CC4CC(CC(C4)C2)C3)c(Cl)c1 (centres undefined)", "tested on": "Hs-578T", "GI50": "> 10 µM (inactive)"}
